- System: A/H5N1/Duck_MN
- EXPERIMENT: microbe, parasite or virus in culture
- Type: cell-based, influenza A
- CONDITION INFO: Influenza A virus, H5N1, read-out: A/H5N1/Duck_MN
pEC50: −log10 of the molar value.
QUANTITY KIND: pEC50

In [3]: df
Out[3]:
                                   compound  measurement
0  COc1ccccc1-c1noc(C)c1C(=O)N1CCN(c2cc(NC(=O)c3ccc(N(C)C)cc3)c([N+](=O)[O-])cc2Cl)CC1 [Example 14]       > 7.00
1  COc1ccc(C(=O)Nc2cc(N3CCN(C(=O)c4c(-c5cccc6ccccc56)noc4C)CC3)c(Cl)cc2[N+](=O)[O-])cc1 [Example 77]       > 6.00
2  Cc1onc(-c2cccc3ccccc23)c1C(=O)N1CCN(c2cc(NC(=O)c3nccs3)c([N+](=O)[O-])cc2Cl)CC1 [Example 78]       > 6.00
